- Tested on: Matricaria chamomilla
- experiment: Greenhouse trial: herbicidal efficacy, Matricaria chamomilla
- Type: in vivo
- assay_setup: post-emergence 2-4-leaf, 14 days after application, g of ai/ha: A1.1 100, B1.1 5, C5 1.25, C24 12.5, C9 7.5, C32 62.5, C37 5, C58 5, C60 10, C61 25, C66 0.375, C71 0.5, C74 0.375, C42 125, mixtures at same rates
# Lookup of reported Herbicidal efficacy (%) Matricaria chamomilla keyed by entry
measured_attribute: Herbicidal efficacy (%) Matricaria chamomilla

{"compound": "CCc1cc(C)cc(CC)c1-c1c(OC(=O)C(C)(C)C)n2n(c1=O)CCOCC2", "assay_result": 0}
{"compound": "COC(=O)c1nc(-c2ccc(Cl)c(OC)c2F)cc(N)c1Cl", "assay_result": 20}
{"compound": "COc1nc(C)nc(N(C)C(=O)NS(=O)(=O)c2ccccc2C(=O)O)n1", "assay_result": 0}
{"compound": "CP(=O)(O)CCC(N)C(=O)O (stereo not drawn) [(A1.1) GA, glufosinate-ammonium]", "assay_result": 50}
{"compound": "COCc1cnc(C2=NC(C)(C(C)C)C(=O)N2)c(C(=O)O)c1 (stereo not drawn)", "assay_result": 0}
{"compound": "Cc1nn(C)c(O)c1C(=O)c1ccc(C(F)(F)F)cc1S(C)(=O)=O", "assay_result": 50}
{"compound": "COc1cc(OC)nc(NC(=O)NS(=O)(=O)N(C)S(C)(=O)=O)n1", "assay_result": 45}
{"compound": "CCOC(=O)[C@@H](C)Oc1ccc(Oc2nc3ccc(Cl)cc3o2)cc1", "assay_result": 0}
{"compound": "CNC1=C(c2cccc(C(F)(F)F)c2)C(=O)C(c2ccccc2)O1 (stereo not drawn)", "assay_result": 25}

----------
Listing of entries alongside the reported Damage to crop plants (%) wheat (GA-tolerant).
- System: wheat (GA-tolerant)
- Format: in vivo
- assay_setup: Table 4; greenhouse, post-emergence, 14 days after application; g of ai/ha: A1.1 100, B1.1 5, C5 1.25, C24 12.5, C9 7.5, C32 62.5, C37 5, C58 5, C60 10, C61 25, C66 0.375, C71 0.5, C74 0.375, C42 125; mixtures at same rates
measured_attribute: Damage to crop plants (%) wheat (GA-tolerant)

{"compound": "CCOC(=O)[C@@H](C)Oc1ccc(Oc2nc3ccc(Cl)cc3o2)cc1 [(C24) fenoxaprop-p-et., fenoxaprop-P-ethyl]", "assay_result": 0}
{"compound": "COc1nc(C)nc(=NC(=O)NS(=O)(=O)c2ccccc2C(=O)O)[nH]1 [(C74) metsulfuron, metsulfuron]", "assay_result": 0}
{"compound": "CCc1cc(C)cc(CC)c1-c1c(OC(=O)C(C)(C)C)n2n(c1=O)CCOCC2 [(C58) pinoxaden, pinoxaden]", "assay_result": 0}
